- test.protocol: Pharmacokinetic and drug-drug interaction studies in blood-fed mosquitoes (concentration-time courses, population PK modelling)
- condition.label: female, Aedes aegypti, in vivo
observation.type: Tmax

Look at this molecule and give its reported Tmax. CO[C@H]1/C=C/O[C@@]2(C)Oc3c(C)c(O)c4c(O)c(c(/C=N/N5CCN(C)CC5)c(O)c4c3C2=O)NC(=O)/C(C)=C\C=C\[C@H](C)[C@H](O)[C@@H](C)[C@@H](O)[C@@H](C)[C@H](OC(C)=O)[C@@H]1C [rifampicin]
~36 h
